Below, each entry is listed alongside its reported pIC50.
system: COS Cell; assay: COS Cell IC50 (Cell-Based Assay); conditions: COS cells
Quick note: pIC50 means taking -log10 of the concentration in moles per liter.

Field: example entries. Status: answers known.
Compound	Experimental value
O=C(CC1CCN(c2ncccn2)CC1)N1CCC([C@H]2c3ncc(Br)cc3CCc3cc(Cl)cc(Br)c32)CC1 [Formula 6.0]	7.17
CC(=O)OC[C@H]1O[C@@H](N2CCC(CC(=O)N3CCC([C@H]4c5ncc(Br)cc5CCc5cc(Cl)cc(Br)c54)CC3)CC2)[C@H](OC(C)=O)[C@@H](OC(C)=O)[C@@H]1OC(C)=O [Formula 9.3]	7.46
O=C(CC1CCN(c2nc3ccccc3o2)CC1)N1CCC([C@H]2c3ncc(Br)cc3CCc3cc(Cl)cc(Br)c32)CC1 [Formula 4.0]	6.92

We now examine a further compound.
The compound O=C(CC1CCN(c2ccccn2)CC1)N1CCC([C@H]2c3ncc(Br)cc3CCc3cc(Cl)cc(Br)c32)CC1 [Formula 5.0] showed pIC50 equal to 7.41
